biological target: ErbB3 on rat Schwann cells (rat) (UniProt Q62799); assay: cell-based or functional assay
Sequence (Q62799 20-1339): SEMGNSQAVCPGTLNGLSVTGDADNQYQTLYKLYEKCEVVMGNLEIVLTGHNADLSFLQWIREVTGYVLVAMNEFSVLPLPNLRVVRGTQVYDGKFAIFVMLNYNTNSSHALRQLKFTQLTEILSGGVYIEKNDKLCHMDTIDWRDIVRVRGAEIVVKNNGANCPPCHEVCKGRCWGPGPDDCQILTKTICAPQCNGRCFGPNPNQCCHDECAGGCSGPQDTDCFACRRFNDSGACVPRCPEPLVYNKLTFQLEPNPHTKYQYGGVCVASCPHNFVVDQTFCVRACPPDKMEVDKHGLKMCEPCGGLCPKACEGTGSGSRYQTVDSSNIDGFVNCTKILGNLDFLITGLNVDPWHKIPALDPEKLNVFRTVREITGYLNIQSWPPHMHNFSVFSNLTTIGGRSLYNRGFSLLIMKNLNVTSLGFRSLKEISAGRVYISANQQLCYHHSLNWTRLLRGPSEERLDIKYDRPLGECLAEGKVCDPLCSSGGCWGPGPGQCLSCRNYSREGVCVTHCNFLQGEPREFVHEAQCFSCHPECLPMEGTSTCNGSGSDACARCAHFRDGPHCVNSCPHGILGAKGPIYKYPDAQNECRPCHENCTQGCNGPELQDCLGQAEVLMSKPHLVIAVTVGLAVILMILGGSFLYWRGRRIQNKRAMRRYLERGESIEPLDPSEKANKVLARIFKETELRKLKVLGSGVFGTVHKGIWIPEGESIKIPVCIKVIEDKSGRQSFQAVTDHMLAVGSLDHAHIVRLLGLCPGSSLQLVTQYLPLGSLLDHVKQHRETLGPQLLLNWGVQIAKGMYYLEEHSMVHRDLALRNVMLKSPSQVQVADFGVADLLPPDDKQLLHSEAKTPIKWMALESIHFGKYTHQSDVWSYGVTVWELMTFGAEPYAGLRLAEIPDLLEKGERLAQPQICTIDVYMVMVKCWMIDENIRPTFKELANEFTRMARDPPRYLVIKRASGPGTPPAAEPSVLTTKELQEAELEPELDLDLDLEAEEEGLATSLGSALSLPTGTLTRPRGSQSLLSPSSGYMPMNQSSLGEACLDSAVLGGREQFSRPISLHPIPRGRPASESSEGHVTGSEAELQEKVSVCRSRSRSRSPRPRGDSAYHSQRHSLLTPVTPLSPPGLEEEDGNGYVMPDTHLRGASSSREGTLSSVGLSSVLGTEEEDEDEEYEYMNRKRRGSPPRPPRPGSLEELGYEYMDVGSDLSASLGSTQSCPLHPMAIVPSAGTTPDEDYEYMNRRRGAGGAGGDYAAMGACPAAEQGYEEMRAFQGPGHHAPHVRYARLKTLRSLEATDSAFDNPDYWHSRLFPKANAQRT
Item-by-item account of Schwann cells (SC) (ErbB3) Avg EC50
Lab book: enter the figure in µM, no units written.

huNRG1(S177-F229)(NRGE1D) (E47K_D48L_F49D_M50I) 6xHis (ligand) SHLVKCGESHKSFCVNGGECYMVEGSSIPSRYLCKCPNEFTGDRCQKLDIASFGGGGEGGGGAGGGGHHHHHH :: 0.0172

Proceed to the following item.
[in] Provide one value: measured Schwann cells (SC) (ErbB3) Avg EC50 of huNRG1(S177-Q237)(1A12)::GG::huFcSEFL2 (Pb) (Fc fusion) SHLVKCAEKHKSFCVNGGECYVVERPSIPSRYLCKCPNEFTGDRCQKFFMASFYKAEELYQGGDKTHTCPPCPAPELLGGPSVFLFPPKPKDTLMISRTPEVTCVVVDVSHEDPEVKFNWYVDGVEVHNAKTKPCEEQYGSTYRCVSVLTVLHQDWLNGKEYKCKVSNKALPAPIEKTISKAKGQPREPQVYTLPPSREEMTKNQVSLTCLVKGFYPSDIAVEWESNGQPENNYKTTPPVLDSDGSFFLYSKLTVDKSRWQQGNVFSCSVMHEALHNHYTQKSLSLSPGK
[out] 0.0479

Numbers sourced from patent US20220402985A1.
